Catalogue of compounds with associated HDAC8/HDAC6 in vitro selectivity
Molecular target: HDAC8 (Homo sapiens)
Construct: Recombinant, full-length HDAC protein (BPS Biosciences) was incubated with fluorophore conjugated substrate; purchased BPS Biosciences
Sequence (Q9BY41 1-377): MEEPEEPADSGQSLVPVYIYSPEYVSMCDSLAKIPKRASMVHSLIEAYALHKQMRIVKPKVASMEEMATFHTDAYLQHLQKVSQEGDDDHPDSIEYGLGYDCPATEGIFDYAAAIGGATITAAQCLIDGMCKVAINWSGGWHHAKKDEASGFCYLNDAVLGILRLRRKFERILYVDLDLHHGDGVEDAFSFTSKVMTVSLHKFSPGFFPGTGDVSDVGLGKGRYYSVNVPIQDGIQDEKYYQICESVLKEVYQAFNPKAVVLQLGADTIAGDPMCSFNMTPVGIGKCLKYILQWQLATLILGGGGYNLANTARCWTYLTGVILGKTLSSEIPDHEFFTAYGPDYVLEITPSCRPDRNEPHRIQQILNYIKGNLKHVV
Assay: In vitro HDAC enzyme inhibition assay, HDAC8
Format: biochemical
Conditions: ratio of IC50 for HDAC8 relative to that of HDAC6
MEASURED ATTRIBUTE: HDAC8/HDAC6 in vitro selectivity

| STRUCTURE SMILES STRING | READOUT VALUE |
| --- | --- |
| Cc1ccc2c(c1)nc(C(F)(F)F)n2Cc1ccc(C(=O)NO)cc1 | 4364 |
| O=C(NO)c1ccc(Cn2cnc3cc(F)ccc32)cc1 | 12348 |
| O=C(NO)c1ccc(Cn2c(=O)[nH]c3cc(F)ccc32)cc1 | 12899 |
| O=C(NO)c1ccc(Cn2c(=O)[nH]c3cc(Cl)ccc32)cc1 | 6673 |
| O=C(NO)c1ccc(Cn2c(C(F)(F)F)nc3ccccc32)cc1 | 3764 |
| COc1ccc2c(c1)nc(C(F)(F)F)n2Cc1ccc(C(=O)NO)cc1 | 3927 |
| O=C(NO)c1ccc(Cn2cnc3cc(Br)ccc32)cc1 | 18285 |
| O=C(NO)c1ccc(Cn2nnc3ccccc32)cc1 | 19098 |
| COc1ccc2c(c1)ncn2Cc1ccc(C(=O)NO)cc1 | 6543 |
| O=C(NO)c1ccc(Cn2nnc3cc(F)ccc32)cc1 | 28870 |
| O=C(NO)c1ccc(Cn2c(C(F)(F)F)nc3cc(Br)ccc32)cc1 | 3501 |
| O=C(NO)c1ccc(Cn2nnc3cc(Cl)ccc32)cc1 | 11132 |

---

Target: HDAC7 (Homo sapiens)
Construct: Recombinant, full-length HDAC protein (BPS Biosciences) was incubated with fluorophore conjugated substrate; purchased BPS Biosciences
Sequence (Q8WUI4 1-952): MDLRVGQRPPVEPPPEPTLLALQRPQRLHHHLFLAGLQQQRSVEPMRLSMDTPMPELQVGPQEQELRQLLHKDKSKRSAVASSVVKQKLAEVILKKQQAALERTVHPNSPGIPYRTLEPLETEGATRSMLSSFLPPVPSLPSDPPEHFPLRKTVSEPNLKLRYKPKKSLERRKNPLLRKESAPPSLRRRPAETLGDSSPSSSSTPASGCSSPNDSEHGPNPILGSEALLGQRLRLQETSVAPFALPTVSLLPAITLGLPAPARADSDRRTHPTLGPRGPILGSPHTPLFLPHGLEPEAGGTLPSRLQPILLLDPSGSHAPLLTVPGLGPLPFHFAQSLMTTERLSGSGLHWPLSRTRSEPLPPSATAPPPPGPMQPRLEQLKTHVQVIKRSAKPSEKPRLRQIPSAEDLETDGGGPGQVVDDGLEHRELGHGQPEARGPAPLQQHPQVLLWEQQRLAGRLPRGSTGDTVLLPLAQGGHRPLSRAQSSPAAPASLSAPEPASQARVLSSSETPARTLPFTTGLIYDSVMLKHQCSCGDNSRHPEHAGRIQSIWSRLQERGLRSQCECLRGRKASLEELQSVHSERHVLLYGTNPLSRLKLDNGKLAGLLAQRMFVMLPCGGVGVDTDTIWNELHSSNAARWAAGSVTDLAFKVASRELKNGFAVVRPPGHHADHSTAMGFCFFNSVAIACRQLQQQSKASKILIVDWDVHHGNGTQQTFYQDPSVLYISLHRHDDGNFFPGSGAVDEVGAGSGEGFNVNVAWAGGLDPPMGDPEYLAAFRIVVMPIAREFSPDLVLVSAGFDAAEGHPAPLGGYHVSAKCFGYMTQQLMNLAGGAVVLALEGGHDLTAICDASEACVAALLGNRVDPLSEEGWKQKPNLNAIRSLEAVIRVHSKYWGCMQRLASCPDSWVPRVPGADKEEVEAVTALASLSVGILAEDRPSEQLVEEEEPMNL
Assay: In vitro HDAC enzyme inhibition assay, HDAC7
Assay type: biochemical
Settings: ratio of IC50 for HDAC7 relative to that of HDAC6
Below is a list of entries, each paired with its recorded HDAC7/HDAC6 in vitro selectivity value.

| STRUCTURE SMILES STRING | HDAC7/HDAC6 in vitro selectivity |
| --- | --- |
| O=C(NO)c1ccc(Cn2nnc3ccccc32)cc1 | 9286 |
| O=C(NO)c1ccc(Cn2nnc3cc(Br)ccc32)cc1 | 11817 |
| O=C(NO)c1ccc(Cn2c(=O)[nH]c3cc(Cl)ccc32)cc1 | 3153 |
| O=C(NO)c1ccc(Cn2c(C(F)(F)F)nc3cc(F)ccc32)cc1 | 484 |
| O=C(NO)c1ccc(Cn2c(=O)[nH]c3cc(C(F)(F)F)ccc32)cc1 | 38222 |
| O=C(NO)c1ccc(Cn2c(C(F)(F)F)nc3cc(Br)ccc32)cc1 | 735 |
| Cc1ccc2c(c1)[nH]c(=O)n2Cc1ccc(C(=O)NO)cc1 | 55678 |
| O=C(NO)c1ccc(Cn2cnc3cc(Cl)ccc32)cc1 | 4029 |
| O=C(NO)c1ccc(Cn2nnc3cc(F)ccc32)cc1 | 21126 |
| COc1ccc2c(c1)nc(C(F)(F)F)n2Cc1ccc(C(=O)NO)cc1 | 1058 |
| O=C(NO)c1ccc(Cn2cnc3cc(Br)ccc32)cc1 | 4265 |
| Cc1ccc2c(c1)nc(C(F)(F)F)n2Cc1ccc(C(=O)NO)cc1 | 348 |
| O=C(NO)c1ccc(Cn2c(C(F)(F)F)nc3ccccc32)cc1 | 255 |
| Cc1ccc2c(c1)ncn2Cc1ccc(C(=O)NO)cc1 | 1098 |

---

Biological target: HDAC2 (Homo sapiens)
Construct: Recombinant, full-length HDAC protein (BPS Biosciences) was incubated with fluorophore conjugated substrate
Sequence (Q92769 whole entry): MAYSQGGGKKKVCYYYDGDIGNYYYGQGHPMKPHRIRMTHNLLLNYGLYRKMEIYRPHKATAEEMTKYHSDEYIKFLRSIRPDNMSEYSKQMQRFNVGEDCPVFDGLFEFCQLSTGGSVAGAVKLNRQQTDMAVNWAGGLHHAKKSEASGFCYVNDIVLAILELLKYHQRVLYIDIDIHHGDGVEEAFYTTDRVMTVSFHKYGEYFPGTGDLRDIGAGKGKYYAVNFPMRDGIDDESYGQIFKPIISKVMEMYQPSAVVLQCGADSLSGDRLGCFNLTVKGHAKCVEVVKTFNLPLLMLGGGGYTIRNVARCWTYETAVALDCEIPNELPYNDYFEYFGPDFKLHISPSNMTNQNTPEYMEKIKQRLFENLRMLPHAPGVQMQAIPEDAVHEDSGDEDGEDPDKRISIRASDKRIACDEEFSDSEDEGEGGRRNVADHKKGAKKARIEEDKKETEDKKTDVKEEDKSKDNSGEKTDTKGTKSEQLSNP
Assay: In vitro HDAC enzyme inhibition assay, HDAC2
Details: recombinant full-length HDAC2, substrate MAZ1600 22 μM
pIC50: −log10 of the molar value.

| STRUCTURE SMILES STRING | pIC50 |
| --- | --- |
| O=C(NO)c1ccc(Cn2c(=O)[nH]c3cc(Cl)ccc32)cc1 | 8.28 |
| O=C(NO)c1ccc(Cn2c(=O)[nH]c3cc(Br)ccc32)cc1 | 8.04 |
| O=C(NO)c1ccc(Cn2c(C(F)(F)F)nc3cc(Cl)ccc32)cc1 | 6.52 |
| O=C(NO)c1ccc(Cn2cnc3ccccc32)cc1 | 6.74 |
| O=C(NO)c1ccc(Cn2c(C(F)(F)F)nc3cc(F)ccc32)cc1 | 6.31 |

---

Target: HDAC1 (Homo sapiens)
Construct: Recombinant, full-length HDAC protein (BPS Biosciences) was incubated with fluorophore conjugated substrate
Sequence (Q13547 whole entry): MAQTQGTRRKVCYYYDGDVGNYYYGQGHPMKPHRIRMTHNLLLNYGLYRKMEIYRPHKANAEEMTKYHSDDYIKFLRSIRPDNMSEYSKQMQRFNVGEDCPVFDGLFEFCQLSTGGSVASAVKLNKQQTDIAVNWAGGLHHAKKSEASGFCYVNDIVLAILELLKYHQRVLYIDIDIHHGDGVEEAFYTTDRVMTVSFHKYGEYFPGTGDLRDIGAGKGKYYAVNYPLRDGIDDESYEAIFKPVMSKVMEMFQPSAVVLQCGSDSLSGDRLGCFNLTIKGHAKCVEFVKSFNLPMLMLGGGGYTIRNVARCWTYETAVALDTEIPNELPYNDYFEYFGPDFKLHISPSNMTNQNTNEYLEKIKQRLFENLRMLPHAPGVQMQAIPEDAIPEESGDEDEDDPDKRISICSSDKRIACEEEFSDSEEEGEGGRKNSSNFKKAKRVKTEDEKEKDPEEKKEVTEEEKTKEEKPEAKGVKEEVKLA
Assay: In vitro HDAC enzyme inhibition assay, HDAC1
Conditions: recombinant full-length HDAC1, substrate MAZ1600 21 μM
pIC50: −log10 of the molar value.
Decide using pIC50: a value greater than or equal to 8 is 1 (yes), a smaller one is 0 (no).

| COMPOUND | ASSIGNED CLASS |
| --- | --- |
| O=C(NO)c1ccc(Cn2c(C(F)(F)F)nc3ccccc32)cc1 [A1] | 0 (no) |
| O=C(NO)c1ccc(Cn2c(=O)[nH]c3cc(Cl)ccc32)cc1 [B4] | 1 (yes) |
| O=C(NO)c1ccc(Cn2cnc3ccccc32)cc1 [A7] | 0 (no) |
| O=C(NO)c1ccc(Cn2c(=O)[nH]c3cc(F)ccc32)cc1 [B3] | 0 (no) |
| O=C(NO)c1ccc(Cn2cnc3cc(F)ccc32)cc1 [A9] | 0 (no) |

---

Target: HDAC4 (Homo sapiens, UniProt P56524)
Construct: Recombinant, full-length HDAC protein (BPS Biosciences) was incubated with fluorophore conjugated substrate; purchased BPS Biosciences
Sequence (P56524 whole entry): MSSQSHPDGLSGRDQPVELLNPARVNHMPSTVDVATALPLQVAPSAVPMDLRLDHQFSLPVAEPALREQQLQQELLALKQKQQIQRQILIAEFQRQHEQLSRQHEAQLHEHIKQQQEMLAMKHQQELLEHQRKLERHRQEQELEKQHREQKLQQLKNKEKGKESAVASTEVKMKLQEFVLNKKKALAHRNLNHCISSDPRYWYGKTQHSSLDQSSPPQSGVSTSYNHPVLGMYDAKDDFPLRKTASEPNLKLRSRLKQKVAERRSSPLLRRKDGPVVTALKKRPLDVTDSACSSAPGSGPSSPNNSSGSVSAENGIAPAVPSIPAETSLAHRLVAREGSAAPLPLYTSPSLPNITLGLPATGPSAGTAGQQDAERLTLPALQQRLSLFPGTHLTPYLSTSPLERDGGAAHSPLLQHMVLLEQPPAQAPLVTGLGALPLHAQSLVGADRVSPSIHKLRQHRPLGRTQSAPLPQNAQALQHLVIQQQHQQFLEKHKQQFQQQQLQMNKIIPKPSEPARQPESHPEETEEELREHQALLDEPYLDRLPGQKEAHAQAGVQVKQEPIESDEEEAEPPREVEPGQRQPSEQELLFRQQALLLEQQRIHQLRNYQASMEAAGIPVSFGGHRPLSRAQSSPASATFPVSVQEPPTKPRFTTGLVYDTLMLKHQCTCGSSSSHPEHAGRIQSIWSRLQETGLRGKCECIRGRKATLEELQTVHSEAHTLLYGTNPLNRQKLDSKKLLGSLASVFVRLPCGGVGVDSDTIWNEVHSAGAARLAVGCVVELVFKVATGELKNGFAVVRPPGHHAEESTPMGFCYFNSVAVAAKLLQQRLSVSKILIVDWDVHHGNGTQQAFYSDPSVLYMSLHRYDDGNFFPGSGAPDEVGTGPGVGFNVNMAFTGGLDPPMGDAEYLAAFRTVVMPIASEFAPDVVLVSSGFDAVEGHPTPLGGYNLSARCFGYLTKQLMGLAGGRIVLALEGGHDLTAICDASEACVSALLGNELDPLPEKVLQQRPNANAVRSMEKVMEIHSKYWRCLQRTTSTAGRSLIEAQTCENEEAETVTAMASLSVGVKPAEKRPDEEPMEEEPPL
Test: In vitro HDAC enzyme inhibition assay, HDAC4
Type: biochemical
Details: ratio of IC50 for HDAC4 relative to that of HDAC6

| STRUCTURE SMILES STRING | HDAC4/HDAC6 in vitro selectivity |
| --- | --- |
| O=C(NO)c1ccc(Cn2nnc3ccccc32)cc1 | 66860 |
| COc1ccc2c(c1)nc(C(F)(F)F)n2Cc1ccc(C(=O)NO)cc1 | 2414 |
| O=C(NO)c1ccc(Cn2nnc3cc(Br)ccc32)cc1 | 60319 |
| O=C(NO)c1ccc(Cn2c(=O)[nH]c3cc(F)ccc32)cc1 | 79927 |
| Cc1ccc2c(c1)[nH]c(=O)n2Cc1ccc(C(=O)NO)cc1 | 412836 |
| O=C(NO)c1ccc(Cn2c(C(F)(F)F)nc3cc(Cl)ccc32)cc1 | 1188 |
| COc1ccc2c(c1)[nH]c(=O)n2Cc1ccc(C(=O)NO)cc1 | 60006 |
| O=C(NO)c1ccc(Cn2c(=O)[nH]c3ccccc32)cc1 | 153386 |
| O=C(NO)c1ccc(Cn2nnc3cc(F)ccc32)cc1 | 81082 |
| Cc1ccc2c(c1)ncn2Cc1ccc(C(=O)NO)cc1 | 7247 |
| O=C(NO)c1ccc(Cn2c(C(F)(F)F)nc3ccccc32)cc1 | 2948 |
| O=C(NO)c1ccc(Cn2cnc3cc(Br)ccc32)cc1 | 93190 |
| Cc1ccc2c(c1)nc(C(F)(F)F)n2Cc1ccc(C(=O)NO)cc1 | 2775 |
| O=C(NO)c1ccc(Cn2c(=O)[nH]c3cc(C(F)(F)F)ccc32)cc1 | 229041 |
| O=C(NO)c1ccc(Cn2nnc3cc(Cl)ccc32)cc1 | 34808 |
| O=C(NO)c1ccc(Cn2cnc3ccccc32)cc1 | 17962 |
| O=C(NO)c1ccc(Cn2c(=O)[nH]c3cc(Br)ccc32)cc1 | 57687 |
| O=C(NO)c1ccc(Cn2cnc3cc(F)ccc32)cc1 | 28751 |
